- tested.on: KDR receptor (Homo sapiens, UniProt P35968)
- Sequence (P35968 20-327 limits assumed): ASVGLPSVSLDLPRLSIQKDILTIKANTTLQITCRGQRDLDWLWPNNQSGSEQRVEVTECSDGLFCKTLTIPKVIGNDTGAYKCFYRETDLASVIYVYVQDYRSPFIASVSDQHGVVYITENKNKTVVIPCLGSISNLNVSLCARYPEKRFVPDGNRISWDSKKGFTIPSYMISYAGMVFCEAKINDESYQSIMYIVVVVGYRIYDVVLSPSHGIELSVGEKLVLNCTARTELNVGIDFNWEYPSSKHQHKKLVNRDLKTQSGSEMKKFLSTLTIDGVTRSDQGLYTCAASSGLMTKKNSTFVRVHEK
- test.protocol: KDR receptor binding ELISA (inhibition of biotinylated native VEGF (8–109) binding)
- stated.conditions: second figure of the cell, variant midpoint concentration divided by that of native VEGF
quantity: Relative Binding Affinity, KDR Receptor: ratio to native VEGF (8–109)

• LK-VRB-10s (ligand, human, UniProt P15692-4 27-135, looked up) APMAEGGGQNHHEVVKFMDVYQRSSCHPIETLVDIFQEYPDEIEYIFKPSCVPLMRCGGCCNSEMRECVPTEESNITMQIMRIKPHQGQHIGEMSFLQHNKCECRPKKD = 0.5 nM/0.5

*Q* I have this molecule here, LK-VRB-15s (ligand, human, UniProt P15692-4 27-135, looked up) APMAEGGGQNHHEVVKFMDVLQRSSCHPIETLVDIFQEYPDEIEYIFKPSCVPLMRCGGCCNSEMRECVPTEESNITMQIMRIKPHQGQHIGEMSFLQHNKCECRPKKD , and I need its recorded Relative Binding Affinity, KDR Receptor: ratio to native VEGF (8–109).
*A* 2 nM/2

*Q* I have this molecule here, LK-VRB-13s (ligand, human, UniProt P15692-4 27-135, looked up) APMAEGGGQNHHEVVKFEDVYQRSSCHPIETLVDIFQEYPDEIEYIFKPSCVPLMRCGGCCNSEMRECVPTEESNITMQIMRIKPHQGQHIGEMSFLQHNKCECRPKKD , and I need its recorded Relative Binding Affinity, KDR Receptor: ratio to native VEGF (8–109).
*A* 14 nM/14
